Reference for the values: PubChem BioAssay (NCATS)

- Experiment: Cytotoxicity counterscreen for inhibitors of SARS-CoV-2 cell entry (AID 1645845); also: nearly all actives have a fitted effect of over 50% in size
- Assay Context: cell viability (SARS-CoV-2 entry assay cells); series mostly up to 57.1 µM
- Experimental: Assay Provider: Wei Zheng, Ph.D. National Center for Advancing Translational Sciences, National Institute of Health, Rockville, MD. SARS-CoV-2 spike protein, within the viral envelope, mediates viral attachment and infection of host cells. The SARS-CoV-2 spike protein specifically binds to the host receptor ACE2 (Angiotensin-converting enzyme 2). […] 7. […] Dispense 4 uL/well of ATPLite 1step luminescence assay reagent (PerkinElmer #6016739). […] 9. […] Read luminescence signal (Viewlux plate reader, PerkinElmer). […]
Results filed as inconclusive are left out. Activity calls are given as the source filed them. Calls follow the shape of the full dose curve.
Recorded Endpoint: outcome

| Substance Smiles | Recorded Endpoint | Result |
| --- | --- | --- |
| C[C@@H]1CC[C@@]2(OC1)O[C@H]1C[C@H]3[C@@H]4CC=C5C[C@@H](O[C@@H]6O[C@H](CO)[C@@H](O[C@@H]7O[C@@H](C)[C@H](O)[C@@H](O)[C@H]7O)[C@H](O)[C@H]6O[C@@H]6O[C@@H](C)[C@H](O)[C@@H](O)[C@H]6O)CC[C@]5(C)[C@H]4CC[C@]3(C)[C@H]1[C@@H]2C | outcome | inactive |
| Nc1nc(F)nc2c1ncn2[C@@H]1O[C@H](COP(=O)(O)O)[C@@H](O)[C@@H]1O | outcome | inactive |
| N=C1CCCN1Cc1[nH]c(=O)[nH]c(=O)c1Cl | outcome | inactive |
